Data credit: ChEMBL document CHEMBL3259659

- measurement description: Lipophilicity, log D of the compound
- Assay type: physicochemical
- condition context: octanol/water
measurement label: logD

Consider the reported logD for these compounds:
CC(C)=CCC/C(C)=C/CC/C(C)=C/CSC[C@H](NC(=O)CCCCCN1CCCC1)C(=O)N1CCCCC1 :: 3.76
CC(C)=CCC/C(C)=C/CC/C(C)=C/CSC[C@H](NC(=O)CCCCCN1CCCC1)C(=O)NC1CCCCC1 :: 4.48

[P] CC(C)=CCC/C(C)=C/CC/C(C)=C/CSC[C@H](NC(=O)CCCCCN1CCCC1)C(=O)NC1CCCC1
[Q] CC(C)=CCC/C(C)=C/CC/C(C)=C/CSc1ccccc1C(N)=O
Query block: Which of the two gives a bigger number for logD: P or Q ? Answer format: the label of the selected item.
Result block: Q
(Q: 6.03, P: 4.04)
